System: Human normal lung fibroblasts MRC-5
assayText: MTT-based viability (cytotoxicity) assay
protocolConditions: 6.25 µg·mL−1, 48 h
assayMetric: viability of MRC-5

compound	result
C[Si]1(C)OB(O)c2cc(F)c(SC3CC(=O)N(c4ccc(F)cc4)C3=O)c(F)c21 (stereo not shown) [Compound 14]	90.4±7.6 % of control ± SD
C[Si]1(C)OB(O)c2cc(F)c(S(=O)(=O)N3CCOCC3)c(F)c21 [Compound 29]	90.1±3.4 % of control ± SD
C[Si]1(C)OB(O)c2ccc(SC3CC(=O)N(c4ccc(F)cc4)C3=O)c(F)c21 (stereo not shown) [Compound 15]	89.2±0.3 % of control ± SD
C[Si]1(C)OB(O)c2cc(F)c(SCCC#N)c(F)c21 [Compound 6]	104.0±5.7 % of control ± SD
C[Si]1(C)OB(O)c2ccc(SC3CC(=O)N(c4ccc(Br)c(C(F)(F)F)c4)C3=O)c(F)c21 (stereo not shown) [Compound 17]	99.9±4.6 % of control ± SD
CC(=O)CSc1ccc2c(c1F)[Si](C)(C)OB2O [Compound 22]	92.1±0.1 % of control ± SD
CCOP(=O)(OCC)Sc1c(F)cc2c(c1F)[Si](C)(C)OB2O [Compound 24]	95.5±1.4 % of control ± SD
C[Si]1(C)OB(O)c2cc(F)c(S(=O)(=O)Nc3ccc(F)cc3)c(F)c21 [Compound 28]	93.3±1.9 % of control ± SD
C[Si]1(C)OB(O)c2cc(F)c(S(N)(=O)=O)c(F)c21 [Compound 27]	74.1±3.1 % of control ± SD
C[Si]1(C)OB(O)c2ccc(SCC(=O)c3ccccc3)c(F)c21 [Compound 23]	99.3±8.4 % of control ± SD
C[Si]1(C)OB(O)c2cc(F)c(SCCS(=O)(=O)c3ccccc3)c(F)c21 [Compound 20]	101.2±1.7 % of control ± SD
C[Si]1(C)OB(O)c2cc(F)c(SC3CC(=O)NC3=O)c(F)c21 (stereo not shown) [Compound 12]	103.0±1.5 % of control ± SD
C[Si]1(C)OB(O)c2cc(F)c(SC3CC(=O)N(c4ccc(Br)c(C(F)(F)F)c4)C3=O)c(F)c21 (stereo not shown) [Compound 16]	97.0±0.2 % of control ± SD

###

Tested on: S. aureus NMI 1712 K MRSA
assayText: Antibacterial activity against clinical MRSA: MIC/MBC
Assay type: cell-based
protocolConditions: Staphylococcus aureus; NMI 1712 K MRSA; read-out: MBC (first MBC where Eagle effect)
As shown below, each of these molecules has a reported MBC value.

molecule	prefixOperator	MBC, µg/mL
C[Si]1(C)OB(O)c2cc(F)c(SCCS(=O)(=O)c3ccccc3)c(F)c21	=	12.5
C[Si]1(C)OB(O)c2cc(F)c(SC3CC(=O)NC3=O)c(F)c21 (stereo not shown)	=	200
CC(=O)NC[C@H]1CN(c2ccc(N3CCOCC3)c(F)c2)C(=O)O1 [LIN, linezolid, reference compound]	>	128
C[Si]1(C)OB(O)c2ccc(SCC(=O)c3ccccc3)c(F)c21	=	25
C[Si]1(C)OB(O)c2cc(F)c(SCCC#N)c(F)c21	=	12.5
CC(=O)CSc1ccc2c(c1F)[Si](C)(C)OB2O	=	400
C[Si]1(C)OB(O)c2ccc(SC(=O)c3ccc(C(F)(F)F)cc3)c(F)c21	=	25

###

Test system: S. cerevisiae ATCC 9763
assayText: Antifungal activity: MIC/MFC, disc-diffusion
Assay type: cell-based, Saccharomyces cerevisiae
protocolConditions: S. cerevisiae ATCC 9763; (-) = zone not observed; paper discs 9 mm
As shown below, each of these molecules has a reported diameter of inhibition zone value.
assayMetric: diameter of inhibition zone (mm)

molecule	readoutNumber
C[Si]1(C)OB(O)c2ccc(SCC(=O)c3ccccc3)c(F)c21 [Compound 23]	24
OC(Cn1cncn1)(Cn1cncn1)c1ccc(F)cc1F [FL, fluconazole, reference compound]	12
C[Si]1(C)OB(O)c2cc(F)c(SCCS(=O)(=O)c3ccccc3)c(F)c21 [Compound 20]	16
C[Si]1(C)OB(O)c2ccc(SCCS(=O)(=O)c3ccccc3)c(F)c21 [Compound 21]	30
C[Si]1(C)OB(O)c2ccc(SC3CC(=O)N(c4ccc(Br)c(C(F)(F)F)c4)C3=O)c(F)c21 (centres unmarked) [Compound 17]	33
COC(=O)CCSc1ccc2c(c1F)[Si](C)(C)OB2O [Compound 4]	32
C[Si]1(C)OB(O)c2ccc(SC3CC(=O)N(c4ccc(F)cc4)C3=O)c(F)c21 (centres unmarked) [Compound 15]	26
C[Si]1(C)OB(O)c2cc(F)c(S)c(F)c21 [Compound 1e]	17
CC(=O)CSc1ccc2c(c1F)[Si](C)(C)OB2O [Compound 22]	17
C[Si]1(C)OB(O)c2cc(F)c(SC3CC(=O)N(c4ccc(Br)c(C(F)(F)F)c4)C3=O)c(F)c21 (centres unmarked) [Compound 16]	35
C[Si]1(C)OB(O)c2cc(F)c(SC3CC(=O)N(c4ccc(F)cc4)C3=O)c(F)c21 (centres unmarked) [Compound 14]	30

###

Test system: Human normal lung fibroblasts MRC-5
assayText: MTT-based viability (cytotoxicity) assay
protocolConditions: 12.5 µg·mL−1, 48 h

molecule	viability of MRC-5
C[Si]1(C)OB(O)c2cc(F)c(SC3CC(=O)N(c4ccc(F)cc4)C3=O)c(F)c21 (stereo not shown)	88.8±5.4 % of control ± SD
C[Si]1(C)OB(O)c2cc(F)c(S(N)(=O)=O)c(F)c21	74.1±1.4 % of control ± SD
C[Si]1(C)OB(O)c2cc(F)c(S(=O)(=O)Nc3ccc(F)cc3)c(F)c21	82.6±1.2 % of control ± SD
C[Si]1(C)OB(O)c2cc(F)c(S(=O)(=O)N3CCOCC3)c(F)c21	90.6±4.5 % of control ± SD
C[Si]1(C)OB(O)c2ccc(SC3CC(=O)N(c4ccc(F)cc4)C3=O)c(F)c21 (stereo not shown)	77.9±4.3 % of control ± SD
CC(=O)CSc1ccc2c(c1F)[Si](C)(C)OB2O	91.5±2.5 % of control ± SD
C[Si]1(C)OB(O)c2cc(F)c(SC3CC(=O)N(c4ccc(Br)c(C(F)(F)F)c4)C3=O)c(F)c21 (stereo not shown)	84.8±2.7 % of control ± SD
C[Si]1(C)OB(O)c2cc(F)c(SC3CC(=O)NC3=O)c(F)c21 (stereo not shown)	104.4±1.9 % of control ± SD
C[Si]1(C)OB(O)c2ccc(SC3CC(=O)N(c4ccc(Br)c(C(F)(F)F)c4)C3=O)c(F)c21 (stereo not shown)	96.1±2.3 % of control ± SD
C[Si]1(C)OB(O)c2ccc(SCC(=O)c3ccccc3)c(F)c21	94.3±0.1 % of control ± SD
C[Si]1(C)OB(O)c2cc(F)c(SCCC#N)c(F)c21	112.1±1.8 % of control ± SD
C[Si]1(C)OB(O)c2cc(F)c(SCCS(=O)(=O)c3ccccc3)c(F)c21	95.3±1.0 % of control ± SD
CCOP(=O)(OCC)Sc1c(F)cc2c(c1F)[Si](C)(C)OB2O	83.9±0.1 % of control ± SD

###

As shown below, each of these compounds has a reported viability of MRC-5 value.
Tested on: Human normal lung fibroblasts MRC-5
assayText: MTT-based viability (cytotoxicity) assay
protocolConditions: 25 µg·mL−1, 48 h

compound	viability of MRC-5
C[Si]1(C)OB(O)c2cc(F)c(SCCS(=O)(=O)c3ccccc3)c(F)c21	93.5±2.1 % of control ± SD
C[Si]1(C)OB(O)c2cc(F)c(S(=O)(=O)N3CCOCC3)c(F)c21	86.8±4.3 % of control ± SD
C[Si]1(C)OB(O)c2cc(F)c(SC3CC(=O)N(c4ccc(F)cc4)C3=O)c(F)c21 (centres unmarked)	87.5±3.5 % of control ± SD
C[Si]1(C)OB(O)c2ccc(SC3CC(=O)N(c4ccc(F)cc4)C3=O)c(F)c21 (centres unmarked)	73.7±0.8 % of control ± SD
CC(=O)CSc1ccc2c(c1F)[Si](C)(C)OB2O	85.2±1.1 % of control ± SD
C[Si]1(C)OB(O)c2cc(F)c(S(=O)(=O)Nc3ccc(F)cc3)c(F)c21	75.1±5.4 % of control ± SD
C[Si]1(C)OB(O)c2cc(F)c(SCCC#N)c(F)c21	104.7±6.7 % of control ± SD
C[Si]1(C)OB(O)c2cc(F)c(SC3CC(=O)N(c4ccc(Br)c(C(F)(F)F)c4)C3=O)c(F)c21 (centres unmarked)	78.5±1.6 % of control ± SD

###

System: K. pneumoniae ATCC 13883
assayText: Antibacterial activity: MIC/MBC, MIC with PAβN, disc-diffusion
Type: cell-based, Klebsiella pneumoniae
protocolConditions: Klebsiella pneumoniae, ATCC13883; K. pneumoniae ATCC 13883; read-out: MIC
As shown below, each of these compounds has a reported MIC value.
assayMetric: MIC

compound	assayMetric	result
C[Si]1(C)OB(O)c2ccc(SCC(=O)c3ccccc3)c(F)c21 [Compound 23]	MIC	> 400 µg/mL
C[Si]1(C)OB(O)c2cc(F)c(SCCC(=O)N3CCOCC3)c(F)c21 [Compound 8]	MIC	> 400 µg/mL
C[Si]1(C)OB(O)c2cc(F)c(S(N)(=O)=O)c(F)c21 [Compound 27]	MIC	> 400 µg/mL
C[Si]1(C)OB(O)c2cc(F)c(SCCS(=O)(=O)c3ccccc3)c(F)c21 [Compound 20]	MIC	> 400 µg/mL
C[Si]1(C)OB(O)c2cc(F)c(S)c(F)c21 [Compound 1e]	MIC	> 400 µg/mL
C[Si]1(C)OB(O)c2cc(F)c(SC3CC(=O)NC3=O)c(F)c21 (stereo not drawn) [Compound 12]	MIC	400 µg/mL
COC(=O)CCSc1ccc2c(c1F)[Si](C)(C)OB2O [Compound 4]	MIC	> 400 µg/mL
C[Si]1(C)OB(O)c2cc(F)c(SCCC(=O)OCCCCCC[n+]3ccccc3)c(F)c21 [Compound 18]	MIC	> 400 µg/mL
C[Si]1(C)OB(O)c2ccc(SC3CC(=O)NC3=O)c(F)c21 (stereo not drawn) [Compound 13]	MIC	200 µg/mL
